Biological target: human CCR-3 (Homo sapiens, UniProt P51677)
Construct: expressed in transfected cells; membranes
Sequence (P51677 whole entry): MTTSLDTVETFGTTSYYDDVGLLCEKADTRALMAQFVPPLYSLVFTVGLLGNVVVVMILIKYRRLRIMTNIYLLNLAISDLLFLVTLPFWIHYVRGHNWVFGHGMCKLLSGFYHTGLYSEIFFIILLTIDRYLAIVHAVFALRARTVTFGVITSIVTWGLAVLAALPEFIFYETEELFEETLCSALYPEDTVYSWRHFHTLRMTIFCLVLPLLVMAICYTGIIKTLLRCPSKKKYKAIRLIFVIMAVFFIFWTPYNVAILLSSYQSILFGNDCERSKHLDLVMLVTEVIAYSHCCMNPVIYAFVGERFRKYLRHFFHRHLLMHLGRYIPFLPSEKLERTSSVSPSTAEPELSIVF
Assay: CCR-3 Binding Assay (inhibition of [125I]-human eotaxin binding, SPA)
Conditions: binding of [125I]-human eotaxin to membranes of RBL-2H3 cells stably expressing CCR3; 4 hours at room temperature
Quantity Name: pIC50
Answers are plain numbers, as −log10 of the molar value.

Report pIC50, nothing else, for this compound: COc1ccc(C#N)cc1/C=C/C(=O)NC(CO)CN1CCC(Oc2ccc(F)cc2)CC1 (stereo not shown)
7.80
